biological target: wild-type LRRK2 (Homo sapiens); construct: DNA tag for qPCR detection (not a peptide; the protein part that carries it is not described); made in house; host or cells: HEK 293 cells (the same paragraph also describes T7 phage grown in E. coli BL21); test: Inhibitory activity against LRRK2: competition binding to ligand-affinity beads, DNA-tagged kinase quantitated by qPCR; conditions: 50 nM compound; % of ctrl; read-out: LRRK2(WT) Remaining kinase activity(%) at 50 nM
Sequence (Q5S007 970-2527): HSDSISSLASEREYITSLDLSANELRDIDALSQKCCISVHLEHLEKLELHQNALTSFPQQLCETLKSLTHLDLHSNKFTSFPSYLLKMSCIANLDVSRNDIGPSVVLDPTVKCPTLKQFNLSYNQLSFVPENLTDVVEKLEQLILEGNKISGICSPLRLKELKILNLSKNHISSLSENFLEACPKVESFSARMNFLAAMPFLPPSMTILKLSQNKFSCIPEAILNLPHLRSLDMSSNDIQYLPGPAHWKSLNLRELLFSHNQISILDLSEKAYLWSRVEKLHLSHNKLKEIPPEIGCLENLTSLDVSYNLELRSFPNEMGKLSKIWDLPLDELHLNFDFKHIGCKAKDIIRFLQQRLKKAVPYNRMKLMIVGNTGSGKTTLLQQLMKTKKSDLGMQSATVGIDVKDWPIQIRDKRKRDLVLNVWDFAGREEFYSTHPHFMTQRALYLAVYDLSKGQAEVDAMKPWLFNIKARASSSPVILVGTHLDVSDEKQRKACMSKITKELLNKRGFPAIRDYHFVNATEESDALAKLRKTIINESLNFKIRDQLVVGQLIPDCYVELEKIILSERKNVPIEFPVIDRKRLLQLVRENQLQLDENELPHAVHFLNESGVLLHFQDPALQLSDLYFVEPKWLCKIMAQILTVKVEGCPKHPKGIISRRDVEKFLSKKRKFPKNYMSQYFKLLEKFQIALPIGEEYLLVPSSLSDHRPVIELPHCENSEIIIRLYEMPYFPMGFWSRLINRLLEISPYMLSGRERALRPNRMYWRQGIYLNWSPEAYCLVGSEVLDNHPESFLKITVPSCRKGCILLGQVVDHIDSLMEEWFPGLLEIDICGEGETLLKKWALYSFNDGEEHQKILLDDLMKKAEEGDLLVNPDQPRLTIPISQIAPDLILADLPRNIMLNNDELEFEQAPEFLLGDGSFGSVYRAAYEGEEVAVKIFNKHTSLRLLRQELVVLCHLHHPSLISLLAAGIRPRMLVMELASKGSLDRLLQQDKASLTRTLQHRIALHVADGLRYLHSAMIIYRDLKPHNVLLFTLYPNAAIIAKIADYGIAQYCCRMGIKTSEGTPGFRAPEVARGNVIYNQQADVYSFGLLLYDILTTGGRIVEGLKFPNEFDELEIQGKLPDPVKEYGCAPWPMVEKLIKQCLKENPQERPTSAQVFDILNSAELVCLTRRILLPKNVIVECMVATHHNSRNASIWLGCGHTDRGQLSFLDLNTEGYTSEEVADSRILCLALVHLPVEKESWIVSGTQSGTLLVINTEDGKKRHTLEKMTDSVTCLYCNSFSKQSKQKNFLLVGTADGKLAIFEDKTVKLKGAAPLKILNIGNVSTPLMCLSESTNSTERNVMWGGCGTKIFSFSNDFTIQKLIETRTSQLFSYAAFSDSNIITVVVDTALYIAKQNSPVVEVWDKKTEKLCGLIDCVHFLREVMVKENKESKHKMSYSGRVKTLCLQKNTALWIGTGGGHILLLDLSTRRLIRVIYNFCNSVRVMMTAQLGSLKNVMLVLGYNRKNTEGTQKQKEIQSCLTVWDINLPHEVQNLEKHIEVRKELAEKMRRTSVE
ENDPOINT: remaining binding at 0.05 µM

Recorded results for 7 compounds are shown here.
compound="COc1cc(C(=O)N2CCC(OC)CC2)ccc1Nc1ncc(Cl)c(-c2cnn(C(C)C)c2)n1 [Compound 76]" endpoint="remaining binding at 0.05 µM" measured="< 30%"
compound="COc1cc(C(=O)N2CCN(C(C)C)CC2)ccc1Nc1ncc(Cl)c(-c2cnn(C(C)(C)C)c2)n1 [Compound 88]" endpoint="remaining binding at 0.05 µM" measured="< 10%"
compound="COc1cc(C(=O)NCCCn2ccnc2)ccc1Nc1ncc(Cl)c(-c2cnn(C(C)C)c2)n1 [Compound 197]" endpoint="remaining binding at 0.05 µM" measured="< 50%"
compound="COc1cc(C(=O)Nc2ccccc2)ccc1Nc1ncc(Cl)c(-c2cnn(C(C)C)c2)n1 [Compound 112]" endpoint="remaining binding at 0.05 µM" measured="< 30%"
compound="COc1cc(C(=O)NCCO)ccc1Nc1ncc(Cl)c(-c2cnn(C(C)C)c2)n1 [Compound 138]" endpoint="remaining binding at 0.05 µM" measured="< 50%"
compound="COc1cc(C(=O)N2CCN(C)CC2)c(F)cc1Nc1ncc(Cl)c(-c2cnn(C(C)C)c2)n1 [Compound 104]" endpoint="remaining binding at 0.05 µM" measured="< 30%"
compound="COc1cc(C(=O)N2CCC3(CC2)COC3)ccc1Nc1ncc(Cl)c(-c2cnn(C(C)C)c2)n1 [Compound 71]" endpoint="remaining binding at 0.05 µM" measured="< 30%"

Q: Respond only with remaining binding at 0.05 µM recorded for COc1cc(C(=O)N2CCN(C)CC2)ccc1Nc1ncc(Cl)c(-c2cnn(C(C)(C)C)c2)n1 [Compound 85]
Result: < 30%
